- target_or_system: D2 receptors (Bos taurus)
- Construct: homogenized and washed membrane preparations from bovine anterior pituitary; from tissue; host or cells: bovine anterior pituitary membranes
- Sequence (P20288 whole entry): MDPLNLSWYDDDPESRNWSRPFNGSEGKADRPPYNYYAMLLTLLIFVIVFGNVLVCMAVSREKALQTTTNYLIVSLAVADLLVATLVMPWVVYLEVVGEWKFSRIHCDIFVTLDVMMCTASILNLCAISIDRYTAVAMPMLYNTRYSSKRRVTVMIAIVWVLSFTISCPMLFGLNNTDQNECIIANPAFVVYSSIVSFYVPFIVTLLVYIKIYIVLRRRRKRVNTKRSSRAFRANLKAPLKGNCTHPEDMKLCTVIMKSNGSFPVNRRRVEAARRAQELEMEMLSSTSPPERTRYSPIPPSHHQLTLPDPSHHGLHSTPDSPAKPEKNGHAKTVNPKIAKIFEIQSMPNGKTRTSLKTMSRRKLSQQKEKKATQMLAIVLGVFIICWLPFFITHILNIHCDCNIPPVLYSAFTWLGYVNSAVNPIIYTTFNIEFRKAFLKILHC
- test_description: D2 activity - competition for 3H-spiroperidol binding in bovine anterior pituitary membranes
- test_conditions: selectivity ratio from the D1 and D2 binding data of Tables I and II; n to 1 = D2 selective, 1 to n = D1 selective
measured_metric: D2 to D1 ratios

D2 to D1 ratios for NC1CCc2c(cc(O)c(O)c2F)C1 (stereo not shown) [Compound D, 5-Fluoro-6,7-dihydroxy-2-aminotetralin] ?
1 to 7

# D2 to D1 ratios lookup, item NC1CCc2cc(O)c(O)c(F)c2C1 (stereo not shown) [Compound E, 8-Fluoro-6,7-dihydroxy-2-aminotetralin]
1 to 27

Continuing:
# D2 to D1 ratios lookup, item NC1CCc2cc(O)c(O)c(Cl)c2C1 (stereo not shown) [Compound G, 8-Chloro-6,7-dihydroxy-2-aminotetralin]
1 to 80

Value lookup for D2 to D1 ratios; key = NC1CCc2cc(O)c(O)cc2C1 (stereo not shown) [ADTN, 6,7-Dihydroxy-2-aminotetralin, reference compound]
1 to 3

---

- Tested on: a2
- test_description: Clonidine binding protocol (a2 activity)
measured_metric: a2 activity

Request the reported a2 activity associated with NC1CCc2c(cc(O)c(O)c2Cl)C1 (centres unmarked) [Compound F, 5-Chloro-6,7-dihydroxy-2-aminotetralin]
demonstrated a2 activity

Which a2 activity value is on record for NC1CCc2cc(O)c(O)cc2C1 (centres unmarked) [ADTN, 6,7-Dihydroxy-2-aminotetralin, reference compound] ?
demonstrated a2 activity

Tell me the measured a2 activity of NC1CCc2cc(O)c(O)c(F)c2C1 (centres unmarked) [Compound E, 8-Fluoro-6,7-dihydroxy-2-aminotetralin] , please.
demonstrated a2 activity

Recorded a2 activity for NC1CCc2c(cc(O)c(O)c2F)C1 (centres unmarked) [Compound D, 5-Fluoro-6,7-dihydroxy-2-aminotetralin] , please?
demonstrated a2 activity

Now consider a different molecule.
// a2 activity lookup, key: NC1CCc2cc(O)c(O)c(Cl)c2C1 (centres unmarked) [Compound G, 8-Chloro-6,7-dihydroxy-2-aminotetralin]
demonstrated a2 activity

---

- target_or_system: D2 receptors (Bos taurus)
- Construct: homogenized and washed membrane preparations from bovine anterior pituitary; from tissue; host or cells: bovine anterior pituitary membranes
- test_description: D2 activity - competition for 3H-spiroperidol binding in bovine anterior pituitary membranes
- test_conditions: competition with 3H-spiroperidol (approximately .25 nM), bovine anterior pituitary membranes; figure in parentheses = number of tests; read-out: D2 (KBind, KB)
We begin with a simple list: items and their reported Kb.
Report the figure in nM without appending any unit label.

For the compound CCCN(CCC)C1CCc2cc(O)c(O)c(Cl)c2C1 (centres unmarked) , what Kb is on record?
240

What measured Kb goes with NC1CCc2cc(O)c(Cl)cc2C1 (centres unmarked) [N, reference compound] ?
4470

New cases:
Return reported Kb; argument: NC1CCc2c(cc(O)c(O)c2Cl)C1 (centres unmarked) [Compound F, 5-Chloro-6,7-dihydroxy-2-aminotetralin]
470

Which Kb value belongs to CCCN(CCC)C1CCc2cc(Cl)c(O)cc2C1 (centres unmarked) [M, reference compound] ?
1630

State the recorded Kb for this entry: NC1CCc2cc(O)c(O)c(Cl)c2C1 (centres unmarked) [Compound G, 8-Chloro-6,7-dihydroxy-2-aminotetralin]
3160

Reported Kb for Oc1ccc(CCNC2CCc3cc(O)c(O)c(Cl)c3C2)cc1 (centres unmarked) : what is it?
405

---

- target_or_system: D1 receptors (Rattus norvegicus)
- Construct: homogenized and washed membrane preparations from rat caudate nuclei; from tissue; host or cells: rat caudate nuclei (striatum) membranes
- Sequence (P18901 whole entry): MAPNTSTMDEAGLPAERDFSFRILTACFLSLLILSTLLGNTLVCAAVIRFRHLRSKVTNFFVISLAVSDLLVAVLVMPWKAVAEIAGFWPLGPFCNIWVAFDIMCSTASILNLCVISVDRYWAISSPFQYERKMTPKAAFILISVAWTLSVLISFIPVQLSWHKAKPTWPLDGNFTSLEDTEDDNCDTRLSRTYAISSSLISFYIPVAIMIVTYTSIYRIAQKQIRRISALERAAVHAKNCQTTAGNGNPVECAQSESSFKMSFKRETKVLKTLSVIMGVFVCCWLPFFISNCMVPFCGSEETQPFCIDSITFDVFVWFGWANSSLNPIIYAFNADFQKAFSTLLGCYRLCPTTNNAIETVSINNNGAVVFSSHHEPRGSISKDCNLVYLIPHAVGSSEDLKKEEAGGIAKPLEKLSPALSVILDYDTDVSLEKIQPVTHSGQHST
- test_description: D1 activity - competition for 3H-fenoldopam binding in rat striatum (caudate) membranes
- test_conditions: competition with 3H-fenoldopam (approximately 2.0 nM), rat caudate membranes; figure in parentheses = number of tests; read-out: D1 (KBind, KB)
# binarize Kb: threshold 600 nM inclusive, high side Fulfilled, low side Not fulfilled

Some solved cases for reference:
Given the entry CCCN(CCc1ccc(O)cc1)C1CCc2cc(O)c(O)c(Cl)c2C1 (stereo not shown) , answer whether its Kb meets or surpasses 600 nM.
Not fulfilled

Is Kb for NC1CCc2cc(O)c(Cl)cc2C1 (stereo not shown) [N, reference compound] at or above 600 nM?
Fulfilled

Check if Kb >= 600 nM (inclusive). Item: CCCN(CCC)C1CCc2cc(O)c(O)c(Cl)c2C1 (stereo not shown)
Fulfilled

Please indicate if the recorded Kb for NC1CCc2cc(O)c(O)c(F)c2C1 (stereo not shown) [Compound E, 8-Fluoro-6,7-dihydroxy-2-aminotetralin] meets or exceeds 600 nM.
Not fulfilled

Please check the record NC1CCc2c(cc(O)c(O)c2Cl)C1 (stereo not shown) [Compound F, 5-Chloro-6,7-dihydroxy-2-aminotetralin] and state if its Kb is at or above 600 nM.
Fulfilled

Identify whether the reported Kb of the following molecule is 600 nM or greater: NC1CCc2c(ccc(O)c2Cl)C1 (stereo not shown) [O, reference compound]
Fulfilled

Could you verify whether the entry CCCN(CCC)C1CCc2cc(Cl)c(O)cc2C1 (stereo not shown) [M, reference compound] shows Kb of no less than 600 nM?
Fulfilled

Reported Kb reaches at least 600 nM for NC1CCc2c(cc(O)c(O)c2F)C1 (stereo not shown) [Compound D, 5-Fluoro-6,7-dihydroxy-2-aminotetralin] ?
Not fulfilled

Next:
Answer whether Kb of Oc1ccc(CCNC2CCc3cc(O)c(O)c(Cl)c3C2)cc1 (stereo not shown) is greater than or equal to 600 nM.
Fulfilled

Given the entry NC1CCc2cc(F)c(O)cc2C1 (stereo not shown) [L, reference compound] , answer whether its Kb meets or surpasses 600 nM.
Not fulfilled

---

- target_or_system: D2 receptors (Bos taurus)
- Construct: homogenized and washed membrane preparations from bovine anterior pituitary; from tissue; host or cells: bovine anterior pituitary membranes
- test_description: D2 activity - competition for 3H-spiroperidol binding in bovine anterior pituitary membranes
- test_conditions: competition with 3H-spiroperidol (approximately .25 nM), bovine anterior pituitary membranes; figure in parentheses = number of tests; read-out: D2 (KBind, KB)
measured_metric: Kb (nM)
Respond with the bare value in nM.

Consider the following illustrative entries.
Quick one: Kb for NC1CCc2cc(O)c(O)c(F)c2C1 (centres unmarked) [Compound E, 8-Fluoro-6,7-dihydroxy-2-aminotetralin] ?
1270

Using the record for CCCN(CCc1ccc(O)cc1)C1CCc2cc(O)c(O)c(Cl)c2C1 (centres unmarked) , report its Kb.
33

New cases:
Reported Kb, compound NC1CCc2cc(F)c(O)cc2C1 (centres unmarked) [L, reference compound] : ____
660

Quick check: Kb of NC1CCc2c(ccc(O)c2Cl)C1 (centres unmarked) [O, reference compound] ?
11600

I have this compound here, NC1CCc2c(cc(O)c(O)c2F)C1 (centres unmarked) [Compound D, 5-Fluoro-6,7-dihydroxy-2-aminotetralin] , and I need its recorded Kb.
520
